- Target of assay: Estrogen Receptor (ERα) in MCF-7 cells (Homo sapiens (Human))
- Sequence (P03372 whole entry): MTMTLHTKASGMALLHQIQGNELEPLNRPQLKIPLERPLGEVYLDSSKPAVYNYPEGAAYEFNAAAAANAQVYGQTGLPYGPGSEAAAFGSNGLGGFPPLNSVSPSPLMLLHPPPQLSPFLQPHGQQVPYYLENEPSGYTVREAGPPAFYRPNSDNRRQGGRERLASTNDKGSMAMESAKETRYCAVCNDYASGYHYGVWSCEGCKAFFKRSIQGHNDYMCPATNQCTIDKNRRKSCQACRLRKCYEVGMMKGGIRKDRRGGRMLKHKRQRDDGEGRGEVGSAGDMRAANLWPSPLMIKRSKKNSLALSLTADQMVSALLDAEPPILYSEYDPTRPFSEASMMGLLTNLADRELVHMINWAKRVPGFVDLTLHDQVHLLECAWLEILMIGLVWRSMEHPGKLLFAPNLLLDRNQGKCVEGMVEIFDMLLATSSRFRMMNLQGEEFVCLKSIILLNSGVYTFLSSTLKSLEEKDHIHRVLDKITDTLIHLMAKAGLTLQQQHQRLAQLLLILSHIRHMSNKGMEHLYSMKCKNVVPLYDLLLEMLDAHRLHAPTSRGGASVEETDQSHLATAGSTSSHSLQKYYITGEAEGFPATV
- Test name: MCF-7 ER down-regulation assay (immuno-fluorescence)
- Measurement context: 18-22 hours incubation
Quantity name: IC50 (nM)
Quick note: give the figure in nM, leave out the unit.

State the recorded IC50 for this entry: COc1cc(OCCNCCCF)ncc1[C@@H]1c2[nH]c3ccccc3c2C[C@@H](C)N1CC(F)(F)F [Example 41]
0.14

For C[C@@H]1Cc2c([nH]c3ccccc23)[C@@H](c2ccc(OCCNCCCF)nc2)N1CC1(F)COC1 [Example 34] , what is its reported IC50?
6.2

IC50 lookup needed for COc1cc(NCCNCCCF)ccc1[C@@H]1c2[nH]c3ccccc3c2C[C@@H](C)N1CC(F)(F)CO [Example 59] , thanks.
0.25

What does the data say about its IC50? Entry: C[C@@H]1Cc2c([nH]c3ccccc23)[C@@H](c2c(F)cc(OCC(CO)NCCCF)cc2F)N1CC(C)(C)F (single isomer, unassigned) [Example 53]
0.14

Name the recorded IC50 for COc1cc(OCCNCCCF)ccc1[C@@H]1c2[nH]c3ccccc3c2C[C@@H](C)N1CC1(F)CC1 [Example 11] .
0.46

Which IC50 value is on record for Cc1cc(OCCNCCCF)ncc1[C@@H]1c2[nH]c3ccccc3c2C[C@@H](C)N1CC(F)F [Example 63] ?
1.8

Would you mind telling me what IC50 value was observed for COc1cc(OCCNCCCF)ncc1[C@@H]1c2[nH]c3ccccc3c2C[C@@H](C)N1CC(F)(F)CO [Example 64] ?
0.21
